# experimentSummary: Incubation of vancomycin in activated (experimental) and inactivated (control) rat liver microsomes
# Assay type: in vitro ADME
# measurementParameters: male; Sprague-Dawley rat liver microsomes 1 mg/mL protein (activated with 1 mmol/L NADPH, or inactivated), PBS, MgCl2 3.3 mmol/L; vancomycin 60 mg/L; 37 °C, constant temperature oscillator, pre-heated 5 min, sampled every 24 h for 10 days; one sample per time point; UHPLC-Triple-TOF-MS/MS, ESI+; read-out: time to 50% loss of vancomycin in rat liver microsomes (converted)
outcomeMeasure: half-life at 60 mg/L

Entry CN[C@H](CC(C)C)C(=O)N[C@H]1C(=O)N[C@@H](CC(N)=O)C(=O)N[C@H]2C(=O)N[C@H]3C(=O)N[C@H](C(=O)N[C@H](C(=O)O)c4cc(O)cc(O)c4-c4cc3ccc4O)[C@H](O)c3ccc(c(Cl)c3)Oc3cc2cc(c3O[C@@H]2O[C@H](CO)[C@@H](O)[C@H](O)[C@H]2O[C@H]2C[C@](C)(N)[C@H](O)[C@H](C)O2)Oc2ccc(cc2Cl)[C@H]1O ; half-life at 60 mg/L = ~144 h

These measurements were taken from paper PMC6195508.
